Where do the numbers come from? From patent US5710011A.

Experiment: Cyclic voltammetry of the complexes in aqueous buffer (PBS)
Format: physicochemical
Details: arene chromium tricarbonyl complexes, aqueous electrochemistry
MEASURED PARAMETER: EOX

{"SMILES RECORD": "COc1ccc(N)c(OC)c1.[C-]#[O+].[C-]#[O+].[C-]#[O+].[Cr]", "VAL": "+170 mV"}
{"SMILES RECORD": "Cc1c(C)c(N)c(C)c(C)c1N.[C-]#[O+].[C-]#[O+].[C-]#[O+].[Cr]", "VAL": "+40 mV"}
{"SMILES RECORD": "OCCN(CCO)c1ccccc1.[C-]#[O+].[C-]#[O+].[C-]#[O+].[Cr]", "VAL": "+250 mV"}

Items follow; give EOX for each.
1. Nc1cc(N)cc(N)c1.[C-]#[O+].[C-]#[O+].[C-]#[O+].[Cr]
2. CN(C)c1ccccc1.[C-]#[O+].[C-]#[O+].[C-]#[O+].[Cr]
3. Nc1ccc(N)cc1.[C-]#[O+].[C-]#[O+].[C-]#[O+].[Cr]

## Result
["+50 mV", "+250 mV", "+135 mV"]
